Known Max. % Inhibition of a selection of molecules
# Tested on: Vasopressin V1
# PROTOCOL NOTES: Vasopressin V1 Antagonist Activity in Conscious Rats (vasopressin vasopressor response)
# Assay type: in vivo, rat
# RUN CONDITIONS: 10 mg/kg i.v.
ATTRIBUTE MEASURED: Max. % Inhibition (%)

Cc1ccccc1C(=O)Nc1ccc(C(=O)N2Cc3ccnn3Cc3ccccc32)cc1	78
Cc1ccccc1NC(=O)c1ccc(C(=O)N2Cc3cccn3Cc3ccccc32)cc1	79
Cc1c(F)cccc1C(=O)Nc1ccc(C(=O)N2Cc3ccnn3Cc3ccccc32)cc1	81
